Reference for the values: PubChem BioAssay AID1159580

Reported normalized growth is given for each of the following compounds.
assay: chemical genetic growth profiling, strain panel (AID 1159580);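 also: tested at 20 µM; growth read once vehicle control cultures reached saturation at 30 °C; 1 = growth at the plate median or of vehicle wells; lower values mean less growth of the strain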; conditions: S. cerevisiae deletion strains, growth OD, locus YER155C, strain BEM2, stronger effect = lower value
About 2,000 (36%) of roughly 5,500 compounds were called active. About 18% were inconclusive and are not listed. Some of the results follow.
QUANTITY KIND: normalized growth

{"columns": ["COMPOUND", "QUANTITY KIND", "ASSAY RESULT"],
 "data": [
  ["C[C@@H]1[C@H]2[C@H](O[C@@H]3O[C@H](CO)[C@@H](O)[C@H](O)[C@H]3O)OC=C(C(=O)O)[C@H]2C[C@@H]1O", "normalized growth", 1.02],
  ["C[N+](C)(C)CCOC(N)=O", "normalized growth", 0.991],
  ["COc1ccc2c(c1)OCc1c-2oc2cc(OC)ccc12", "normalized growth", 0.941],
  ["COc1cc2c(cc1OC)C1C(=O)c3c(OC)cc4c(c3OC1CO2)CCC(C)(C)O4 (configuration not stated)", "normalized growth", 1.02],
  ["CCOC(=O)C(=O)C1(C(=O)OCC)Oc2cc(OC)cc(OC)c2C(=O)C1c1ccccc1 (configuration not stated)", "normalized growth", 0.966],
  ["CCOC(=O)C(C)(C)Oc1ccc(Cl)cc1", "normalized growth", 1],
  ["CN(C)CC/C=C1\\c2ccccc2Sc2ccc(Cl)cc21", "normalized growth", 1.03],
  ["CC(C)OC(=O)C(C)(C)Oc1ccc(C(=O)c2ccc(Cl)cc2)cc1", "normalized growth", 1],
  ["CCN(CC)CCNC(=O)c1cc(Br)c(N)cc1OC", "normalized growth", 1],
  ["C=C(C)[C@@H]1[C@H]2OC(=O)[C@@H]1[C@]1(O)C[C@H]3O[C@]34C(=O)O[C@H]2[C@]14C", "normalized growth", 0.999],
  ["CC(=O)N[C@@H](CC(C)C)C(=O)O", "normalized growth", 0.992],
  ["CC(=O)[C@H]1CCC2C3CCC4=CC(=O)CC[C@]4(C)C3CC[C@@]21C (some centres not stated)", "normalized growth", 0.991],
  ["O=C(O)c1cc2ccccc2[nH]1", "normalized growth", 0.992],
  ["CC(N)CCCC(C)(C)O (configuration not stated)", "normalized growth", 1],
  ["CN1CCC(=C2c3ccccc3CC(=O)c3sccc32)CC1", "normalized growth", 1],
  ["CN1CCC(=C2c3ccccc3Sc3ccccc32)CC1", "normalized growth", 1.01],
  ["CC1=C(/C=C/C(C)=C/C=C/C(C)=C/C=C/C=C(C)/C=C/C=C(C)/C=C/C23OC2(C)CC(O)CC3(C)C)C(C)(C)CC(O)C1 (configuration not stated)", "normalized growth", 1.01],
  ["CC(=O)OCC(=O)[C@H]1CCC2C3CCC4=CC(=O)CC[C@]4(C)C3CC[C@@]21C (some centres not stated)", "normalized growth", 0.92],
  ["CC[C@H](/C=C/C(C)C1CCC2C3CCC4=CC(=O)CC[C@]4(C)C3CC[C@]12C)C(C)C (some centres not stated)", "normalized growth", 1.01],
  ["CC(Oc1ccccc1)C(=O)N[C@@H]1C(=O)N2[C@@H]1SC(C)(C)[C@@H]2C(=O)O (some centres not stated)", "normalized growth", 0.998],
  ["CCC(C)C(=O)O[C@H]1[C@H](O)C2C(CN3CC(C)CCC3[C@@]2(C)O)C2C[C@]34O[C@]5(O)C(OC(=O)C(C)(O)C(C)O)CC[C@@]3(C)C5C(OC(C)=O)[C@@H](OC(C)=O)C4[C@@]21O (some centres not stated)", "normalized growth", 1],
  ["CCCCCCCCNC(C)C(O)c1ccc(SC(C)C)cc1 (configuration not stated)", "normalized growth", 0.0577],
  ["Cc1cc(O)c(C)c(O)c1C(=O)O", "normalized growth", 0.988],
  ["CNCCc1ccccn1", "normalized growth", 1],
  ["COc1ccc2c(C)cc(=O)oc2c1", "normalized growth", 1.01],
  ["OCCN1C[C@@H](O)[C@@H](O)C(O)C1CO (some centres not stated)", "normalized growth", 1.01],
  ["Cc1cccc(C)c1OCC(C)N (configuration not stated)", "normalized growth", 0.999],
  ["CC(=O)NC1SCCC1=O (configuration not stated)", "normalized growth", 1.01],
  ["CC(C)(O)[C@@H]1[C@H]2OC(=O)[C@@H]1[C@]1(O)C[C@H]3O[C@]34C(=O)O[C@H]2[C@]14C", "normalized growth", 1],
  ["OCC(O)C(O)C(O)CO (configuration not stated)", "normalized growth", 1],
  ["COc1cc(O)c(C(=O)/C=C/c2ccccc2)c(OC)c1", "normalized growth", 0.625],
  ["CN(C)c1ccc(C(=C2C=CC(=[N+](C)C)C=C2)c2ccc(N(C)C)cc2)cc1", "normalized growth", 0.411],
  ["C=C1C([C@]2(C)C(CC(=O)OC)[C@@](C)(COC(C)=O)OC(=O)C[C@@H]2OC(C)=O)[C@@H](OC=O)[C@H](OC(=O)C(OC(C)=O)C(C)CC)[C@@]2(C)[C@H](c3ccoc3)CC(=O)C12O (some centres not stated)", "normalized growth", 1.02],
  ["C[C@H]1CC2C([C@@H](O)C[C@@]3(C)C2CC[C@]3(O)C(=O)CO)[C@@]2(C)C=CC(=O)C=C12 (some centres not stated)", "normalized growth", 0.996],
  ["COc1cc(NS(=O)(=O)c2ccc(N)cc2)nc(OC)n1", "normalized growth", 0.996],
  ["C[C@]12CC(=O)C3C(CC[C@@H]4C[C@H](O)CC[C@]34C)C1CC[C@]2(O)C(=O)CO (some centres not stated)", "normalized growth", 0.986],
  ["O=C(O)c1cc2ccccc2c(Cc2c(O)c(C(=O)O)cc3ccccc23)c1O", "normalized growth", 0.992],
  ["COc1cc2c(cc1OC)Cc1cc(OC)c(OC)cc1Cc1cc(OC)c(OC)cc1C2", "normalized growth", 1.01],
  ["CC1=C(CC(=O)O)c2cc(F)ccc2/C1=C\\c1ccc(S(C)=O)cc1 (configuration not stated)", "normalized growth", 1.01],
  ["CCS(=O)CCSP(=O)(OC)OC (configuration not stated)", "normalized growth", 1.02],
  ["C[C@]12CCC(=O)C=C1CCC1C2CC[C@@]2(C)C1CC[C@@H]2O (some centres not stated)", "normalized growth", 1.01],
  ["COc1ccc2c(c1OC)C(=O)O[C@@H]2[C@H]1c2cc3c(cc2CCN1C)OCO3", "normalized growth", 1.02]
]}
